Reference source: patent US5434150A

Measured EC50 of individual entries
Tested on: platelet aggregation (platelet-rich plasma)
Test: Antithrombotic activity: inhibition of collagen-induced platelet aggregation in platelet-rich plasma (Born and Cross)
Assay type: cell-based, human (healthy volunteers)
Details: 50% change in optical density, human platelet-rich plasma, 10 min preincubation
Where a name gives a salt, the structure may show the parent alone.
Response body: numeric value in µM, unit text excluded.

Ask: Report EC50 for N=C(N)c1ccc(-c2nc3cc(C(=O)NCCC(=O)OCC4CCCCC4)ccc3n2CCCCc2ccccc2)cc1 [13(6), dihydrochloride] please.
Result: 0.98

Ask: Report EC50 for N=C(N)c1ccc(-c2nc3cc(C(=O)NCCC(=O)O)ccc3n2CCN2CCNCC2)cc1 [Example 15, acetate] please.
Result: 0.04

Ask: Report EC50 for `COC(=O)CCNC(=O)c1ccc2c(c1)nc(-c1ccc(C(=N)N)cc1)n2CCCN1CCS(=O)(=O)CC1` please.
Result: 18

Ask: Report EC50 for `N=C(N)c1ccc(OCc2nc3cc(OCC(=O)O)ccc3[nH]2)cc1` please.
Result: 7.6
